Test: Human HepG2 cell viability assay in 384 well format
Type: toxicity, cell-based
Set-up: dose 125 nL, time 70.5 hour; concentration not given beside the values
Conditions: HepG2 cells, read-out: Inhibition
Listed compounds paired with reported cytotoxicity at 70.5 h
READOUT_LABEL: cytotoxicity at 70.5 h (%)

{"COMPOUND": "COCC(C)(O)CNC(=O)Nc1cccc(OC)c1OC (configuration not stated)", "READOUT_LABEL": "cytotoxicity at 70.5 h", "UNIT_LABEL": "%", "VALUE_REPORTED": -11}
{"COMPOUND": "Cn1cc(CN2C[C@@H]3COC[C@@H](C(=O)N4CCCCO4)[C@@H]3C2)cn1", "READOUT_LABEL": "cytotoxicity at 70.5 h", "UNIT_LABEL": "%", "VALUE_REPORTED": -1.2}
{"COMPOUND": "CC(C)(C)N1CCN(C(=O)c2cccnc2-n2cncn2)CC1", "READOUT_LABEL": "cytotoxicity at 70.5 h", "UNIT_LABEL": "%", "VALUE_REPORTED": 0.2}
{"COMPOUND": "Cc1cc(CN(C)CCC(O)c2ccccc2)nn1C (configuration not stated)", "READOUT_LABEL": "cytotoxicity at 70.5 h", "UNIT_LABEL": "%", "VALUE_REPORTED": -2.1}
{"COMPOUND": "CS(=O)(=O)N1CCc2c(cccc2NC(=O)NC2CCCC2)C1", "READOUT_LABEL": "cytotoxicity at 70.5 h", "UNIT_LABEL": "%", "VALUE_REPORTED": -3.1}
{"COMPOUND": "Cc1nnc(C2CCN(C(=O)c3ccc4[nH]ccc4c3)CC2)s1", "READOUT_LABEL": "cytotoxicity at 70.5 h", "UNIT_LABEL": "%", "VALUE_REPORTED": -5.35}
{"COMPOUND": "CC1CCC(N2Cc3nc(N)ncc3C2=O)CC1 (configuration not stated)", "READOUT_LABEL": "cytotoxicity at 70.5 h", "UNIT_LABEL": "%", "VALUE_REPORTED": -12.4}
{"COMPOUND": "Cc1nnc(N2CCc3cnc(C(C)C)nc3C2)c(C#N)c1C", "READOUT_LABEL": "cytotoxicity at 70.5 h", "UNIT_LABEL": "%", "VALUE_REPORTED": 1.1}
{"COMPOUND": "CC(O)CN1CCC(CN(C)C(=O)NC2CC2)CC1 (configuration not stated)", "READOUT_LABEL": "cytotoxicity at 70.5 h", "UNIT_LABEL": "%", "VALUE_REPORTED": -1.96}
{"COMPOUND": "O=C(N[C@H]1COC[C@@H]1N1CCCC1)c1c[nH]nc1C1CCCCC1", "READOUT_LABEL": "cytotoxicity at 70.5 h", "UNIT_LABEL": "%", "VALUE_REPORTED": -4.22}
{"COMPOUND": "CC(C)c1ccc(OCn2ccc(C(=O)N3CCCC3)n2)cc1", "READOUT_LABEL": "cytotoxicity at 70.5 h", "UNIT_LABEL": "%", "VALUE_REPORTED": -4.33}
{"COMPOUND": "Cn1nc(C(=O)N2CCCC(n3cncn3)C2)ccc1=O (configuration not stated)", "READOUT_LABEL": "cytotoxicity at 70.5 h", "UNIT_LABEL": "%", "VALUE_REPORTED": -7.35}
